In this section, each of the compounds is paired with its reported IC50.
# tested-system: KAT-6A (Homo sapiens (Human), UniProt Q92794)
# Sequence (Q92794 other isoform, or with tags, fused parts or gaps): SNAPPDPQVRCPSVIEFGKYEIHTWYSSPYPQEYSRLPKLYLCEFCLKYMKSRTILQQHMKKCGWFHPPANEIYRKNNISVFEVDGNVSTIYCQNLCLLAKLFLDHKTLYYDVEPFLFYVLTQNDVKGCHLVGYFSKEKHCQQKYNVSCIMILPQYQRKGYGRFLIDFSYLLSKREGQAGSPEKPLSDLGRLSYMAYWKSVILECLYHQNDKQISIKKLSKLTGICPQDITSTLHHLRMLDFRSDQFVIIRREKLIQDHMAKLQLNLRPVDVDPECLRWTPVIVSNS
# experimental-details: KAT-6A biochemical inhibition assay (SAMDI mass spectrometry)
reported-metric: IC50

| compound | reported-metric | result |
| --- | --- | --- |
| Cn1cnc(-c2cc(Cl)c(F)c(C(=O)NNS(=O)(=O)c3cccnc3OCc3ccccc3)c2)c1 | IC50 | < 10 µM |
| Cc1ncn(-c2cc(Cl)c(F)c(C(=O)NNS(=O)(=O)CC3CCOCC3)c2)n1 | IC50 | 10 to 50 µM |
| Cc1ccnc(-c2cc(Cl)c(F)c(C(=O)NNS(=O)(=O)CC3CCOCC3)c2)c1 | IC50 | < 10 µM |
| CC(=O)N1CCC(CS(=O)(=O)NNC(=O)c2cc(-c3cn(C)cn3)cc(Cl)c2F)C1 (stereo not drawn) | IC50 | 10 to 50 µM |
| Cn1cnc(-c2cc(Cl)c(F)c(C(=O)NNS(=O)(=O)CC3CCN(C(N)=O)C3)c2)c1 (stereo not drawn) | IC50 | < 10 µM |
| COC1CCCC(CS(=O)(=O)NNC(=O)c2cc(-c3cn(C)cn3)cc(Cl)c2F)C1 (stereo not drawn) | IC50 | < 10 µM |
| Cn1cnc(-c2cc(Cl)c(F)c(C(=O)NNS(=O)(=O)CC3CCCC(NC(=O)c4ccncc4)C3)c2)c1 (stereo not drawn) | IC50 | < 10 µM |
| Cn1cnc(-c2cc(Cl)c(F)c(C(=O)NNS(=O)(=O)Cc3cccnc3)c2)c1 | IC50 | 10 to 50 µM |
| CN(CCOc1ccc(S(=O)(=O)NNC(=O)c2cc(-c3cn(C)cn3)cc(Cl)c2F)cc1)C(=O)OC(C)(C)C | IC50 | 10 to 50 µM |
| Cn1cnc(-c2cc(Cl)c(F)c(C(=O)NNS(=O)(=O)CC3CCCC(S(=O)(=O)C4CCC4)C3)c2)c1 (stereo not drawn) | IC50 | < 10 µM |
| CCOC1CCC(CS(=O)(=O)NNC(=O)c2cc(-c3cn(C)cn3)cc(Cl)c2F)CC1 (stereo not drawn) | IC50 | < 10 µM |
| Cc1cc(-c2cn(C)cn2)cc(C(=O)NNS(=O)(=O)CC2CCCCC2)c1F | IC50 | < 10 µM |
| Cn1cnc(-c2cc(Cl)c(F)c(C(=O)NNS(=O)(=O)CC3CCC(NC(=O)N4CCC4)C3)c2)c1 (stereo not drawn) | IC50 | < 10 µM |
| CCO[C@@H]1CCC[C@H](CS(=O)(=O)NNC(=O)c2cc(-c3cn(C)cn3)cc(Cl)c2F)C1 | IC50 | 10 to 50 µM |
| COCC(=O)N1CCCC(CS(=O)(=O)NNC(=O)c2cc(-c3cn(C)cn3)cc(Cl)c2F)C1 (stereo not drawn) | IC50 | < 10 µM |
